- System: SNU484
- assay comment: Cell viability drug screen, 12-point dose-response AUC
- Type: cell-based, human
- measurement setup: SNU484 cells; 72 hours; 12-point dose-response
Structures can show the parent of a compound that is named as a salt.
metric name: area under the viability curve (AUC), normalized

Some entries whose results are on file:
CCCCc1nc2cc(/C=C/C(=O)NO)ccc2n1CCN(CC)CC [SB939 (Pracinostat), Pracinostat]    0.208
COc1ncc(-c2ccc3nccc(-c4ccnnc4)c3c2)cc1NS(=O)(=O)c1ccc(F)cc1F [GSK2126458]    0.4641
COCCn1c2c([n+](Cc3cnccn3)c1C)C(=O)c1ccccc1C2=O [YM155]    −2.56
CCCOc1ccc2nc(NC(=O)OC)[nH]c2c1 [Oxybendazole]    −0.00299
C/C(=C\c1csc(C)n1)[C@@H]1C[C@@H]2O[C@@H]2CCC[C@H](C)[C@H](O)[C@@H](C)C(=O)C(C)(C)[C@@H](O)CC(=O)O1 [Epothilone A]    −0.4364

response.value for Cc1cnc(NC(=O)Nc2cc(Br)c(C)cc2OC[C@@H]2CNCCO2)cn1 [LY2603618] (field: area under the viability curve (AUC), normalized) = 0.3141

response.value for O=C1c2c(O)ccc(O)c2C(=O)c2c(NCCNCCO)ccc(NCCNCCO)c21 [Mitoxantrone Hydrochloride] (field: area under the viability curve (AUC), normalized) = −1.158

response.value for Cc1ccc(C(=O)N(CCCN)[C@@H](c2oc3cc(Cl)ccc3c(=O)c2Cc2ccccc2)C(C)C)cc1 [SB 743921] (field: area under the viability curve (AUC), normalized) = −1.3076

###

- Test system: MKN28
- assay comment: Cell viability drug screen, 12-point dose-response AUC
- Type: cell-based, human
- measurement setup: MKN28 cells; 72 hours
Counter-ions that a name gives are not always drawn.
Below, each entry is listed with its recorded Average Area Under the Viability Curve (AUC), AUC norm value.
Give only the figure.

O=C(/C=C/c1cccc(S(=O)(=O)Nc2ccccc2)c1)NO    −0.3952
Cc1ccc(C(=O)N(CCCN)[C@@H](c2nc3cc(Cl)ccc3c(=O)n2Cc2ccccc2)C(C)C)cc1 [Ispinesib (SB-715992), Ispinesib]    −1.956

Shift focus to the following entry.
response.value for COC1=CC(c2cc3ccccc3[nH]2)=N/C1=C\c1[nH]c(C)cc1C [Obatoclax mesylate (GX15-070), Obatoclax mesylate] (field: Average Area Under the Viability Curve (AUC), AUC norm value) = −0.3769

###

- System: SNU719
- assay comment: Cell viability drug screen, 12-point dose-response AUC
- Format: cell-based, human
- measurement setup: SNU719 cells; 72 hours
Average Area Under the Viability Curve (AUC), AUC norm value strictly less than 2 = y. Otherwise n.

CC[C@]1(O)C[C@@H]2CN(CCc3c([nH]c4ccccc34)[C@@](C(=O)OC)(c3cc4c(cc3OC)N(C)[C@H]3[C@@](O)(C(=O)OC)[C@H](OC(C)=O)[C@]5(CC)C=CCN6CC[C@]43[C@@H]65)C2)C1    n
CN(C)Cc1c(C(=O)NCCOc2ccc(C(=O)NO)cc2)oc2ccccc12    y
CCC[C@H](NC(=O)/C(C#N)=C/c1cccc(Br)n1)c1ccccc1    y
O=C(Nc1c[nH]nc1-c1nc2ccc(CN3CCOCC3)cc2[nH]1)NC1CC1    n
CC[C@@H]1C(=O)N(C)c2cnc(Nc3ccc(C(=O)NC4CCN(C)CC4)cc3OC)nc2N1C1CCCC1    n

Query block: Please indicate whether the reported Average Area Under the Viability Curve (AUC), AUC norm value of `CC(C)C[C@H](NC(=O)[C@H](CCc1ccccc1)NC(=O)CN1CCOCC1)C(=O)N[C@@H](Cc1ccccc1)C(=O)N[C@@H](CC(C)C)C(=O)[C@@]1(C)CO1` is strictly below 2.
Result block: y

Query block: Please indicate whether the reported Average Area Under the Viability Curve (AUC), AUC norm value of O=C(CCCCCCC(=O)Nc1ccccc1)NO [Vorinostat (SAHA), Vorinostat] is strictly below 2.
Result block: y
